Exercise: state measured Activity for each of the compounds provided.
# TARGET_UNDER_TEST: UniProt Q16236
# Sequence (whole entry): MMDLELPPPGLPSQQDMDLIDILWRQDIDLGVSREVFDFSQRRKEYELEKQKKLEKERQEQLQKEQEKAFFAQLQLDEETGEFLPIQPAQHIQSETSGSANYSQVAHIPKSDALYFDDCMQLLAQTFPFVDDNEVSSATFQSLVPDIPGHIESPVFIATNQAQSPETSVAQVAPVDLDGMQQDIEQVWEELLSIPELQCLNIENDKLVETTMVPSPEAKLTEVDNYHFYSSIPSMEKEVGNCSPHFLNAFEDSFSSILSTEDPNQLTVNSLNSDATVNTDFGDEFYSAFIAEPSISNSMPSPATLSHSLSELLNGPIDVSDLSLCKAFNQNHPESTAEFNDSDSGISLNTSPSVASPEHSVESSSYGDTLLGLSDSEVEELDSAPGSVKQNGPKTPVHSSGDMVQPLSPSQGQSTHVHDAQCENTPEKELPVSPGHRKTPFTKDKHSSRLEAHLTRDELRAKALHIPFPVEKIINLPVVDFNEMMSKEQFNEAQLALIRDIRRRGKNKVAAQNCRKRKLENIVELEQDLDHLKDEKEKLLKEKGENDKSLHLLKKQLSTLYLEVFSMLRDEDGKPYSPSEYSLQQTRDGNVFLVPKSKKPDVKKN
# EXPERIMENT_DESCRIPTION: Activation of Nrf2 in human HepG2-ARE-C8 cells assessed as induction of ARE-mediated luciferase activity at 40 uM after 24 hrs by luciferase reporter gene assay relative to control
# Format: cell-based

>>> measurement("Fc1ccc(-c2nc(-c3ccccn3)no2)cc1F")
1.32
>>> measurement("Fc1ccc(-c2noc(-c3ccc(F)c(F)c3)n2)cc1F")
2.68
>>> measurement("CC(=O)c1ccc(-c2noc(-c3ccc(F)c(F)c3)n2)cc1")
3.78
>>> measurement("Fc1cc(F)c(-c2nc(-c3ccc4nc[nH]c4c3)no2)cc1Cl")
5.14
>>> measurement("Fc1ccc(-c2nc(-c3ccc4nc[nH]c4c3)no2)cc1F")
42.6
>>> measurement("Fc1ccc(-c2noc(-c3ccc(F)c(F)c3)n2)cc1")
5.68
>>> measurement("Fc1ccc(-c2nc(-c3ncccc3F)no2)cc1F")
2.52
>>> measurement("Fc1ccc(-c2nc(-c3ccc4nc[nH]c4c3)no2)c(Br)c1")
21.6

Hi there! I need Activity for each item below, if you can.
1. Fc1cccc(-c2nc(-c3ccc4nc[nH]c4c3)no2)c1
2. Fc1ccc(-c2nc(-c3ncccn3)no2)cc1F
3. Fc1cccc(-c2nc(-c3ccc4nc[nH]c4c3)no2)c1F
4. Cc1ccc(-c2noc(-c3ccc(F)c(F)c3)n2)cn1

Completion:
1. 12.4
2. 2.95
3. 10.7
4. 48.7

* * *

For each record, write down the corresponding Activity.
# TARGET_UNDER_TEST: Nuclear factor erythroid 2-related factor 2 (Homo sapiens) (UniProt Q16236)
# Sequence (whole entry): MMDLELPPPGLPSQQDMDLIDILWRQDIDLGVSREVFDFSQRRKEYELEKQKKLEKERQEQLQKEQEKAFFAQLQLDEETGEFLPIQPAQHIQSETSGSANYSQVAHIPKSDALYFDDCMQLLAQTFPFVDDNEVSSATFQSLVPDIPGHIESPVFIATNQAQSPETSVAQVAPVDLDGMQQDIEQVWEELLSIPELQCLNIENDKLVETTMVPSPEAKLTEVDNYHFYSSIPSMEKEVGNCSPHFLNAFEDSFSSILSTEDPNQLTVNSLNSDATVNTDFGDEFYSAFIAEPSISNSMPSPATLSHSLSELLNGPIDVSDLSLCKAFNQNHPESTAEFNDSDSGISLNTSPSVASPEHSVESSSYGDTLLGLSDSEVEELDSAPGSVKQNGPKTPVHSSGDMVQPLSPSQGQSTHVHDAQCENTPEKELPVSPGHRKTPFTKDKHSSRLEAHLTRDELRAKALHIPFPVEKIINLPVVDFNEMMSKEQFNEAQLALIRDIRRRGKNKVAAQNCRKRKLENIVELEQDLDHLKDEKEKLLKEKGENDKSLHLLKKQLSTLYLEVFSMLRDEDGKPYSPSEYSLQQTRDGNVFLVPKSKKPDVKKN
# EXPERIMENT_DESCRIPTION: Activation of Nrf2 in human HepG2-ARE-C8 cells assessed as induction of ARE-mediated luciferase activity at 0.01 uM after 24 hrs by luciferase reporter gene assay relative to control
# Type: cell-based
Answers are plain numbers.

Before answering, review these 6 worked examples.
>>> measurement("Cc1cccc(-c2noc(-c3ccc(F)c(F)c3)n2)n1")
1.16
>>> measurement("CN(C)C=O")
0.82
>>> measurement("Fc1ccc(-c2nc(-c3ccc(Cl)cc3)no2)cc1F")
2.85
>>> measurement("Fc1cccc(-c2nc(-c3ccc4nc[nH]c4c3)no2)c1F")
1.77
>>> measurement("Clc1cccc(-c2nc(-c3ccc4nc[nH]c4c3)no2)c1")
1.74
>>> measurement("Fc1ccc(-c2nc(-c3ccc4nc[nH]c4c3)no2)cc1F")
1.46

Please give Activity, item by item, for the list that follows.
1. Fc1ccc(-c2noc(-c3ccc(F)c(F)c3)n2)cc1F
2. Fc1ccc(-c2nc(-c3cnccn3)no2)cc1F
3. Fc1ccc(-c2nc(-c3cccnc3)no2)cc1F
4. Brc1ccc(-c2nc(-c3ccc4nc[nH]c4c3)no2)cc1
5. Fc1ccc(-c2nc(-c3ccc4nc[nH]c4c3)no2)cc1
6. Cc1ccnc(-c2noc(-c3ccc(F)c(F)c3)n2)c1
7. Fc1ccc(-c2nc(-c3ccc(Br)cc3)no2)cc1F
8. CC(=O)c1ccc(-c2noc(-c3ccc(F)c(F)c3)n2)cc1

Completion:
1: 1.42; 2: 1.13; 3: 1.45; 4: 0.22; 5: 1.57; 6: 0.63; 7: 2.68; 8: 1.25
